Reference source for all entries: patent US9228952B2

- test protocol: Measurement of fluorescence characteristics of compounds (fluorescence spectrophotometer)
- Assay type: physicochemical
- settings: 5 μM DMSO solution
value type: Excitation wavelength λex (nm)
One number for each entry, in nm.

Report Excitation wavelength λex for each item below.
1. CCN1C(=O)/C(=c2\s/c(=C/c3ccc4c(c3)C3CCCC3N4Cc3ccccc3)c(=O)n2CC(=O)O)SC1=S (centres unmarked)
2. O=C(O)Cn1c(=O)/c(=C\c2ccc3c(c2)C2CCCC2N3Cc2ccccc2)s/c1=C1/SC(=S)N(Cc2ccccc2)C1=O (centres unmarked)

Output:
535
540

Each of the following entries comes with a recorded value; kindly state Excitation wavelength λex for each.
1. CCN1C(=O)/C(=c2\s/c(=C/c3ccc4c(c3)C3CCCC3N4c3cccc(SC)c3)c(=O)n2CC(=O)O)SC1=S (centres unmarked)
2. CCN1C(=O)/C(=c2\s/c(=C/c3ccc4c(c3)C3CCCC3N4c3ccc(OC)cc3)c(=O)n2CC(=O)O)SC1=S (centres unmarked)
3. CCN1C(=O)/C(=c2\s/c(=C/c3ccc4c(c3)C3CCCC3N4c3ccc(SC)cc3)c(=O)n2CC(=O)O)SC1=S (centres unmarked)
4. CCN1C(=O)/C(=c2\s/c(=C/c3ccc4c(c3)C3CCCC3N4c3ccccc3)c(=O)n2CC(=O)O)SC1=S (centres unmarked)
5. O=C(O)CNC(=O)CN1C(=O)/C(=C\c2ccc3c(c2)C2CCCC2N3c2ccccc2)SC1=S (centres unmarked)
6. CCN1C(=O)/C(=c2\s/c(=C/c3cc(Br)c4c(c3)C3CCCC3N4Cc3ccccc3)c(=O)n2CC(=O)O)SC1=S (centres unmarked)

Output:
530
543
539
531
499
596

Please go through the list and note Excitation wavelength λex for each compound.
1. CCN1C(=O)/C(=c2\s/c(=C/c3cc(Br)c4c(c3)C3CCCC3N4c3ccc(Br)cc3)c(=O)n2CC(=O)O)SC1=S (centres unmarked)
2. C=CCN1C(=O)/C(=c2\s/c(=C/c3ccc4c(c3)C3CCCC3N4c3ccc(OC)cc3)c(=O)n2CC(=O)O)SC1=S (centres unmarked)
3. CCCCN1C(=O)/C(=c2\s/c(=C/c3ccc4c(c3)C3CCCC3N4c3ccc(OC)cc3)c(=O)n2CC)SC1=S (centres unmarked)
4. CCCN1C(=O)/C(=c2\s/c(=C/c3ccc4c(c3)C3CCCC3N4c3ccc(OC)cc3)c(=O)n2CC)SC1=S (centres unmarked)
5. COc1ccc(N2c3ccc(/C=C4/SC(=S)N(CC(=O)NCC(=O)O)C4=O)cc3C3CCCC32)cc1 (centres unmarked)

Output:
1: 513; 2: 504; 3: 539; 4: 539; 5: 511

Input: Please give the measured Excitation wavelength λex for this compound: CCCCCN1C(=O)/C(=c2\s/c(=C/c3ccc4c(c3)C3CCCC3N4c3ccc(OC)cc3)c(=O)n2CC)SC1=S (centres unmarked)
Output: 538

###

Please provide measured Fluorescence wavelength λem for the entries that follow.
- test protocol: Measurement of fluorescence characteristics of compounds (fluorescence spectrophotometer)
- Type: physicochemical
- settings: 5 μM DMSO solution
One number for each entry, in nm.

Input: Quick one: Fluorescence wavelength λem for COc1ccc(N2c3ccc(/C=c4/s/c(=C5/SC(=S)N(Cc6ccccc6)C5=O)n(CC(=O)O)c4=O)cc3C3CCCC32)cc1 (centres unmarked) ?
Output: 643

List the reported Fluorescence wavelength λem of each compound below.
1. C=CCN1C(=O)/C(=c2\s/c(=C/c3ccc4c(c3)C3CCCC3N4c3ccc(OC)cc3)c(=O)n2CC(=O)O)SC1=S (centres unmarked)
2. CCCCCN1C(=O)/C(=c2\s/c(=C/c3ccc4c(c3)C3CCCC3N4c3ccc(OC)cc3)c(=O)n2CC)SC1=S (centres unmarked)

Output:
606
638

Please give Fluorescence wavelength λem, item by item, for the list that follows.
1. CCN1C(=O)/C(=c2\s/c(=C/c3cc(Br)c4c(c3)C3CCCC3N4c3ccc(Br)cc3)c(=O)n2CC(=O)O)SC1=S (centres unmarked)
2. CCN1C(=O)S/C(=c2/s/c(=C/c3ccc4c(c3)C3CCCC3N4Cc3ccccc3)c(=O)n2CC(=O)O)C1=O (centres unmarked)
3. CCN1C(=O)/C(=c2\s/c(=C/c3ccc4c(c3)C3CCCC3N4c3ccc(OC)cc3)c(=O)n2CC(=O)O)SC1=S (centres unmarked)
4. O=C(O)Cn1c(=O)/c(=C\c2ccc3c(c2)C2CCCC2N3Cc2ccccc2)s/c1=C1/SC(=S)N(Cc2ccccc2)C1=O (centres unmarked)
5. O=C(O)CNC(=O)CN1C(=O)/C(=C\c2ccc3c(c2)C2CCCC2N3c2ccccc2)SC1=S (centres unmarked)
6. CCN1C(=O)/C(=c2\s/c(=C/c3cc(Br)c4c(c3)C3CCCC3N4Cc3ccccc3)c(=O)n2CC(=O)O)SC1=S (centres unmarked)
7. CCCN1C(=O)/C(=c2\s/c(=C/c3ccc4c(c3)C3CCCC3N4c3ccc(OC)cc3)c(=O)n2CC)SC1=S (centres unmarked)
8. CCn1c(=O)/c(=C\c2ccc3c(c2)C2CCCC2N3c2ccccc2)s/c1=C1/SC(=S)N(CC(=O)O)C1=O (centres unmarked)

Output:
[600, 578, 638, 614, 598, 520, 636, 615]

###

- test protocol: Measurement of fluorescence characteristics of compounds (fluorescence spectrophotometer)
- Format: physicochemical
- settings: 5 μM DMSO solution
Can you tell me Excitation wavelength λex for the items I'm about to list?
Give bare numbers, in nm.

Please review the entries below; each comes with its answer.
Input: Return reported Excitation wavelength λex; argument: CCN1C(=O)S/C(=c2/s/c(=C/c3ccc4c(c3)C3CCCC3N4Cc3ccccc3)c(=O)n2CC(=O)O)C1=O (stereo not drawn) [Compound 16]
Output: 500

Input: What would you report for COc1ccc(N2c3ccc(/C=c4/s/c(=C5/SC(=S)N(Cc6ccccc6)C5=O)n(CC(=O)O)c4=O)cc3C3CCCC32)cc1 (stereo not drawn) [Compound 11] ?
Output: 542

Attention now turns to another entry.
Input: Entry CCn1c(=O)/c(=C\c2ccc3c(c2)C2CCCC2N3c2ccccc2)s/c1=C1/SC(=S)N(CC(=O)O)C1=O (stereo not drawn) [Compound 20] has what Excitation wavelength λex?
Output: 533

###

- Test system: hematopoietic stem cells (bone marrow cells)
- test protocol: Identification of hematopoietic stem cells in stained bone marrow cells by FACS with antibody markers (Experimental Examples 1-17, Comparative Examples 1-2)
- Type: cell-based, C57BL/6 mouse
- Set-up: key: A: Hematopoietic stem cells are identified very well.; B: Hematopoietic stem cells are identified well.; C: Hematopoietic stem cells are poorly identified
- settings: stain 1 μM, 37° C., 30 minutes, mouse bone marrow cells, FACS
value type: Identification of hematopoietic stem cells

Input: // query Identification of hematopoietic stem cells value for entry CCN1C(=O)/C(=c2\s/c(=C/c3ccc4c(c3)C3CCCC3N4c3ccccc3)c(=O)n2CC(=O)O)SC1=S (centres unmarked)
Output: A

Input: Try this compound too: C=CCN1C(=O)/C(=c2\s/c(=C/c3ccc4c(c3)C3CCCC3N4c3ccc(OC)cc3)c(=O)n2CC(=O)O)SC1=S (centres unmarked)
Output: A

Input: Another compound to check: CCN1C(=O)S/C(=c2/s/c(=C/c3ccc4c(c3)C3CCCC3N4Cc3ccccc3)c(=O)n2CC(=O)O)C1=O (centres unmarked)
Output: B

Input: And O=C(O)CNC(=O)CN1C(=O)/C(=C\c2ccc3c(c2)C2CCCC2N3c2ccccc2)SC1=S (centres unmarked) ?
Output: A

Input: Same lookup for CCN1C(=O)/C(=c2\s/c(=C/c3ccc4c(c3)C3CCCC3N4Cc3ccccc3)c(=O)n2CC(=O)O)SC1=S (centres unmarked) , please.
Output: A

Input: // next record CCn1c(=O)/c(=C\c2ccc3c(c2)C2CCCC2N3c2ccccc2)s/c1=C1/SC(=S)N(CC(=O)O)C1=O (centres unmarked)
Output: B

Input: Note, next up: CCN1C(=O)/C(=c2\s/c(=C/c3ccc4c(c3)C3CCCC3N4c3cccc(SC)c3)c(=O)n2CC(=O)O)SC1=S (centres unmarked)
Output: A

Input: Now the same for O=C(O)Cn1c(=O)/c(=C\c2ccc3c(c2)C2CCCC2N3Cc2ccccc2)s/c1=C1/SC(=S)N(Cc2ccccc2)C1=O (centres unmarked)
Output: A

Dear colleague, could you please provide Identification of hematopoietic stem cells for the compounds listed below?
1. CCN1C(=O)/C(=c2\s/c(=C/c3cc(Br)c4c(c3)C3CCCC3N4Cc3ccccc3)c(=O)n2CC(=O)O)SC1=S (centres unmarked)
2. CCN1C(=O)/C(=c2\s/c(=C/c3ccc4c(c3)C3CCCC3N4c3ccc(SC)cc3)c(=O)n2CC(=O)O)SC1=S (centres unmarked)

Output:
1. A
2. A

###

- test protocol: Measurement of fluorescence characteristics of compounds (fluorescence spectrophotometer)
- Assay type: physicochemical
- settings: 5 μM DMSO solution
value type: Fluorescence wavelength λem (nm)
Answers are plain numbers, in nm.

// each listed compound needs a value for Fluorescence wavelength λem
1. CCN1C(=O)/C(=c2\s/c(=C/c3ccc4c(c3)C3CCCC3N4c3cccc(SC)c3)c(=O)n2CC(=O)O)SC1=S (stereo not drawn)
2. CCCCN1C(=O)/C(=c2\s/c(=C/c3ccc4c(c3)C3CCCC3N4c3ccc(OC)cc3)c(=O)n2CC)SC1=S (stereo not drawn)
3. CCN1C(=O)/C(=c2\s/c(=C/c3ccc4c(c3)C3CCCC3N4Cc3ccccc3)c(=O)n2CC(=O)O)SC1=S (stereo not drawn)
4. CCN1C(=O)/C(=c2\s/c(=C/c3ccc4c(c3)C3CCCC3N4c3ccccc3)c(=O)n2CC(=O)O)SC1=S (stereo not drawn)
5. COc1ccc(N2c3ccc(/C=C4/SC(=S)N(CC(=O)NCC(=O)O)C4=O)cc3C3CCCC32)cc1 (stereo not drawn)

Output:
1. 612
2. 638
3. 612
4. 615
5. 626

Input: Which value of Fluorescence wavelength λem has been reported for CCN1C(=O)/C(=c2\s/c(=C/c3ccc4c(c3)C3CCCC3N4c3ccc(SC)cc3)c(=O)n2CC(=O)O)SC1=S (stereo not drawn) in the records?
Output: 636
